This collection of values is drawn from the supplement of paper PMC13380429.

Each entry below lists one item and its recorded cell viability value.
Tested on: U2OS
Procedure Text: cell viability relative to DMSO; higher = less toxic
Measurement Setup: 72 h; 100 nM
Record the value in %, omitting the unit from your answer.

As a guide, the following entries are already answered.
Cc1ccc2c(c1)c1c3n2CCNC3CCC1 (centres undefined) [pirlindole] = 96.9
COc1cccc(OC)c1-c1ccc(C[C@H](NC(=O)c2c(Cl)cccc2Cl)C(=O)O)cc1 = 98.5
N#Cc1ccc(-c2ccc(S(=O)(=O)Nc3cccc(N)n3)cc2)cc1 = 101

Problem: // map CCCCCCc1ccc(O)cc1O [hexylresorcinol] to recorded cell viability (system: U2OS)
Result: 97.5

Problem: So what cell viability did O=C1c2ccccc2C(Cc2ccnc(F)c2)(Cc2ccnc(F)c2)c2ccccc21 [DMP-543] get with U2OS?
Result: 96

Problem: Requested read-out cell viability, target or system U2OS, entry C[C@H]1O[C@@H](n2cc(F)c(=O)[nH]c2=O)[C@H](O)[C@@H]1O [doxifluridine]
Result: 100

----------
System: Vero E6
Procedure Text: cell viability relative to DMSO; higher = less toxic
Measurement Setup: 72 h; 10000 nM
Reported Metric: cell viability

Problem: Query (molecule): N#Cc1cccc(-c2nc(-c3cccnc3)no2)c1 [NS-9283] ; field requested: cell viability
Result: 99.7%

Problem: Item CC(C)c1ccc2oc3nc(N)c(C(=O)O)cc3c(=O)c2c1 [amlexanox] has what recorded cell viability?
Result: 106%

Problem: Which value of cell viability has been reported for C[C@H](NC(=O)Cc1cc(F)cc(F)c1)C(=O)N[C@@H]1C(=O)N(C)c2ccccc2-c2ccccc21 in the records?
Result: 109%

Problem: Item under review: CC(C)NCCCn1c(Sc2cc3c(cc2I)OCO3)nc2c(N)ncnc21 [PU-H71] . Reported cell viability?
Result: 33.2%

Problem: // cell viability lookup, key: CCOC(=O)c1c(O)nc2cccc3c2c1-c1ccccc1C3=O [NQDI-1]
Result: 94%

----------
Tested on: Calu-3
Procedure Text: cell viability relative to DMSO; higher = less toxic
Measurement Setup: 72 h; 100 nM
Reported Metric: cell viability (%)
Give a bare numeral; the unit % is implied.

Previously resolved entries follow.
COc1ccc(Cc2cnc(N)nc2N)cc1OC [diaveridine] = 97.7
CC(C)C(=O)c1ccc(O)c(O)c1 [U-0521] = 102
OC[C@H]1O[C@@H](c2ccc(Cl)c(Cc3ccc(O[C@H]4CCOC4)cc3)c2)[C@H](O)[C@@H](O)[C@@H]1O [empagliflozin] = 114

As a next step, examine the molecule that follows.
Problem: Record request: cell viability value, item C=CCc1cc(OC)c(O)c(C(=O)NCCO)c1 [alibendol]
Result: 87.2

----------
Tested on: U2OS
Procedure Text: cell viability relative to DMSO; higher = less toxic
Measurement Setup: 72 h; 1 nM
Recorded cell viability by entry
Number only, in %; omit the unit.

Problem: Look at this compound and give its reported cell viability. CC(C)=CCC[C@](C)(O)[C@@H]1CC=C(C)CC1
Result: 96.2

----------
Documented cell viability across a set of molecules
Tested on: Vero E6
Procedure Text: cell viability relative to DMSO; higher = less toxic
Measurement Setup: 72 h; 1000 nM
Reply with just the number (in %).

C=C1C(=O)O[C@@H]2C[C@@]3(C)CCC[C@H](C)C3=C[C@H]12 = 96.8

Problem: Which value of cell viability has been reported for COc1ccc(Cc2cnc(N)nc2N)cc1OC in the records?
Result: 98.2

Problem: Given the entry C=CC(=O)Nc1cccc(Oc2nc(Nc3ccc(N4CCN(C)CC4)cc3)ncc2Cl)c1 , report its measured cell viability.
Result: 59.9

Problem: Field request: cell viability | item: COC(=O)Nc1nc2cc(C(=O)c3ccc(F)cc3)ccc2[nH]1
Result: 79

Problem: Quick one: cell viability for CCCCCCCCCCCCCCC[C@@H](O)[C@@H](N)CO ?
Result: 104
